System: mono-methyl arginine in RKO cells
Assay: RKO Methylation Assay, In Cell Western (ICW) for mono-methyl arginine and DNA content
Assay type: cell-based
Settings: Homo sapiens, RKO, 72 h, RKO cells, 72 hours, mono-methyl arginine, percent activation; single experiment or average of multiple experiments; read-out: EC30 (In Cell Western data, Numerical)
I would appreciate it if you labelled entries 1 when EC30 is 3 µM or higher, otherwise -1.

# check: EC30 of "CNCCN(C)Cc1c[nH]nc1-c1cc(Cl)c(OCC2CC2)c(Cl)c1" is greater than or equal to 3 µM
-1

* * *

Quick record of pIC50 values for human PRMT3 (Homo sapiens, UniProt O60678).
Remember, pIC50 is on a log scale: it is -log10 of the molar concentration.

CNCCN(C)Cc1c[nH]nc1-c1cccc(C(C)=O)c1 = 5.46
CC(C)Oc1ccc(-c2n[nH]cc2CN(C)CCN)cc1F = 5.46
Cc1ccc(-c2n[nH]cc2CN(C)CCN)cc1 = 5.45
CCCc1ccc(-c2n[nH]cc2CN(C)CCNC)cc1 = 5.45

Below: the item to evaluate.
Provide the reported pIC50 (system: human PRMT3 (Homo sapiens, UniProt O60678)) for "CN(CCN)Cc1c[nH]nc1-c1ccc(C2CCOCC2)cc1"
Sequence (O60678 with tags, fused parts or gaps): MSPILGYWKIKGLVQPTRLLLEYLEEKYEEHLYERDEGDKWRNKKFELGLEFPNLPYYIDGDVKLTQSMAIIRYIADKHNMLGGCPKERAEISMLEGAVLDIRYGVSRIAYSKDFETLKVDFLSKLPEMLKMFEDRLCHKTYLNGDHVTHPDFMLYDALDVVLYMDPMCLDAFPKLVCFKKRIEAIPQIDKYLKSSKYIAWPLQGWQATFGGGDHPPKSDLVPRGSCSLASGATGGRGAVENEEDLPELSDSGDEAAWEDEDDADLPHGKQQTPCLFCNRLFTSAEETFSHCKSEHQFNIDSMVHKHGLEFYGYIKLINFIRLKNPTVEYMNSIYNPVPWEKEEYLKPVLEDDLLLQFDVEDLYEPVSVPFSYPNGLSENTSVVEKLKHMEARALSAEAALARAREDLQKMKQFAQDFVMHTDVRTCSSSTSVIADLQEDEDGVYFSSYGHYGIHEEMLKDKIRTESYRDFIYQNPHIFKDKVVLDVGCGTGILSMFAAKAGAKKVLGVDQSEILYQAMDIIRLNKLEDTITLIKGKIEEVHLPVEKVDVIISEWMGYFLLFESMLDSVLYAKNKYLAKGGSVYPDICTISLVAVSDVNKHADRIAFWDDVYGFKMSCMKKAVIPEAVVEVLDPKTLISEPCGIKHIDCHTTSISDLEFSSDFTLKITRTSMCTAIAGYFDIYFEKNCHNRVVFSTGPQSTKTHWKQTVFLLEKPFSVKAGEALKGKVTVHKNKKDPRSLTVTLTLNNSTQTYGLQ
6.17

* * *

Below, each of the molecules is paired with its reported IC50 value.
Biological target: human PRMT6 (Homo sapiens)
Construct: Flag-PRMT6-His; made in house; host or cells: HEK 293F cells (BacMam baculovirus)
Assay: PRMT6 Biochemical Assay (3H-SAM Flashplate, peptide substrate)
Settings: Biochemical IC50 PRMT6, single experiment or average of multiple experiments
Structures can show the parent of a compound that is named as a salt.
Please give a number only; it is taken to be in nM.

Study these solved cases before continuing.
CC(C)CC(=O)N1CCN(c2ccc(-c3n[nH]cc3CN(C)CCN)cc2)CC1 = 20.5
CN(CCN)Cc1c[nH]nc1-c1cc(F)cc(F)c1 = 11.8
COc1cc(Cl)cc(-c2n[nH]cc2CN(C)CCN)c1 = 14.1
COCCCOc1ccc(-c2n[nH]cc2CN(C)CCN)cc1 = 13.4
CNCCN(C)Cc1c[nH]nc1-c1ccccc1F = 44.1
CN(CCN)Cc1n[nH]cc1-c1ccc(Cl)cc1 = 9.02

Return IC50 for the following molecule: "Cc1ccc(-c2n[nH]cc2CN(C)CCN)c(C)c1"
29

Quick one: give measured IC50 for "CNCCN(C)Cc1c[nH]nc1-c1ccc(OC(C)C)cc1"
10.6

State, in one line, measured IC50 of "CNCCN(C)Cc1cnn(CC2CCOCC2)c1-c1ccc(F)cc1"
191

Identify measured IC50 corresponding to CNCCN(C)Cc1cn(C2CCC2)nc1-c1ccc(OC(C)C)cc1 [Compound 254, hydrochloride]
201

Recall and state the measured IC50 for "CCC(=O)N1CCN(c2ccc(-c3n[nH]cc3CN(C)CCN)cc2)CC1" .
29.5

Specify measured IC50 for "CC(C)Oc1ccc(-c2n[nH]cc2CN(C)CCN)cc1F" .
7.35

In one line, give reported IC50 of the entry "C=CC(=O)Nc1cccc(-c2[nH]ncc2CN(C)CCNC)c1" .
173

Kindly indicate its recorded IC50. Item: "CN(CCN)Cc1c[nH]nc1-c1ccc(C(F)(F)F)cc1"
6.45

Check the records and state IC50 for "CNCCN(C)Cc1cn(C2CCCC2)nc1-c1ccc(OC(C)C)cc1"
124

Consider the molecule "CNCCN(C)Cc1c[nH]nc1-c1ccc(C)cc1C" and give its recorded IC50.
61.7

* * *

Target: human PRMT6 (Homo sapiens)
Construct: Flag-PRMT6-His; made in house; host or cells: HEK 293F cells (BacMam baculovirus)
Assay: PRMT6 Biochemical Assay (3H-SAM Flashplate, peptide substrate)
Conditions: single experiment or average of multiple experiments; read-out: Biochemical IC50 PRMT6
Endpoint name: pIC50
Please express pIC50 as -log10 of the molar concentration.

Consider the following illustrative entries.
CNCCN(C)Cc1c[nH]nc1-c1ccc(C(=O)c2ccccc2)cc1 [Compound 45] = 8.12
CNCCN(C)Cc1c[nH]nc1-c1ccc(OC(CO)C(C)C)cc1 (centres unmarked) [Compound 286] = 7.49
CNCCN(C)Cc1c[nH]nc1-c1cccc(NC(C)=O)c1 [Compound 42] = 7.32
CN(CCN)Cc1c[nH]nc1-c1ccc(N2CCN(C(=O)Cc3ccccc3)CC2)cc1 [Compound 190] = 7.70

# evaluate next
Lab note: record pIC50 of CN(CCN)Cc1c[nH]nc1-c1ccc(F)cc1 [Compound 1] tested on human PRMT6 (Homo sapiens).
7.96

* * *

In this section, each of the compounds is paired with its reported pIC50.
Target: human PRMT6 (Homo sapiens)
Construct: Flag-PRMT6-His; made in house; host or cells: HEK 293F cells (BacMam baculovirus)
Assay: PRMT6 Biochemical Assay (3H-SAM Flashplate, peptide substrate)
Details: Biochemical IC50 PRMT6, single experiment or average of multiple experiments
Description: S-adenosylmethionine (SAM), S-adenosylhomocysteine (SAH), bicine, Tween20, dimethylsulfoxide (DMSO), bovine skin gelatin (BSG), sodium butyrate and Tris(2-carboxyethyl)phosphine hydrochloride solution (TCEP) were purchased from Sigma-Aldrich at the highest level of purity possible. ^3H-SAM was purchase from American Radiolabeled Chemicals with a specific activity of 80 Ci/mmol. 384-well streptavidin Flashplates were purchased from PerkinElmer. […]
Note on pIC50: it is the negative log10 of concentration, concentration in mol/L.

CN(CCN)Cc1c[nH]nc1-c1ccc(OC(F)F)cc1 [Compound 94] = 8.10
CNCCN(C)Cc1cn(Cc2ccncc2)nc1-c1ccc(OC(C)C)cc1 [Compound 245] = 6.65
CN(CCN)Cc1c[nH]nc1-c1ccc(F)c(Cl)c1 [Compound 124] = 8.15

Give the observed pIC50 of CNCCN(C)Cc1n[nH]cc1-c1ccc(Oc2ccccc2)c(C(=O)NC)c1 [Compound 240] for human PRMT6 (Homo sapiens).
7.84

Please tell me the measured pIC50 for Cc1c(F)cccc1-c1n[nH]cc1CN(C)CCN [Compound 129] ; system: human PRMT6 (Homo sapiens).
7.28

Look up and report measured pIC50 (human PRMT6 (Homo sapiens)) for the following compound: CNCCN(C)Cc1c[nH]nc1-c1ccc(Oc2cncnc2)cc1 [Compound 303]
7.62

For human PRMT6 (Homo sapiens), give the measured pIC50 of the entry COCCOc1ccc(-c2n[nH]cc2CN(C)CCN)cc1 [Compound 167]
7.76

Quote human PRMT6 (Homo sapiens) pIC50 for entry CNCCN(C)Cc1c[nH]nc1-c1cc(CC(C)C)cc(CC(C)C)c1 [Compound 281] .
6.62

GET pIC50 | system: human PRMT6 (Homo sapiens) | item: CNCCN(C)Cc1c[nH]nc1-c1ccc(OC2CC2)c(F)c1 [Compound 301]
7.60

* * *

Target: human PRMT8 (Homo sapiens, UniProt Q9NR22)
Sequence (Q9NR22 whole entry): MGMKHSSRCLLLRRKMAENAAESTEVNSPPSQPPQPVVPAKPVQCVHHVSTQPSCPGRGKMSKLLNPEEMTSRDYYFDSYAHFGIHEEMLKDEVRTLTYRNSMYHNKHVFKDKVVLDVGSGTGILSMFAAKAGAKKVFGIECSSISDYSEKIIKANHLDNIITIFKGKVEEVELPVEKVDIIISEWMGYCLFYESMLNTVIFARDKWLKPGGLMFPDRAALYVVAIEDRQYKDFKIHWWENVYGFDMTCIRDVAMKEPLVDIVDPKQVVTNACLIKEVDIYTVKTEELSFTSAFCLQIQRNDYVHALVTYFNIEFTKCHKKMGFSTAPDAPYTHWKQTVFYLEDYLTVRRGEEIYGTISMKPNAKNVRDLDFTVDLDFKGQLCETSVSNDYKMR
Assay: PRMT8 Biochemical Assay (3H-SAM Flashplate, peptide substrate)
Details: single experiment or average of multiple experiments
Description: S-adenosylmethionine (SAM), S-adenosylhomocysteine (SAH), bicine, Tween20, dimethylsulfoxide (DMSO), bovine skin gelatin (BSG), isopropyl-β-D-thiogalactopyranoside (IPTG), and Tris(2-carboxyethyl)phosphine hydrochloride solution (TCEP) were purchased from Sigma-Aldrich at the highest level of purity possible. ^3H-SAM was purchase from American Radiolabeled Chemicals with a specific activity of 80 Ci/mmol. 384-well streptavidin Flashplates were purchased from PerkinElmer. […]
Endpoint name: IC50 (nM)
# number only, unit nM dropped from output

Here are 2 compounds together with their reported answers.
CNCCN(C)Cc1c[nH]nc1-c1ccc(F)cc1 = 507
CN(CCN)Cc1c[nH]nc1-c1ccc(F)c(Cl)c1 = 294

For the compound "CNCCN(C)Cc1cn(C)nc1-c1ccc(OC(C)C)c(Cl)c1" , give its reported IC50.
349

* * *

Biological target: human PRMT6 (Homo sapiens, UniProt Q96LA8)
Construct: Flag-PRMT6-His; made in house; host or cells: HEK 293F cells (BacMam baculovirus)
Sequence (Q96LA8 with tags, fused parts or gaps): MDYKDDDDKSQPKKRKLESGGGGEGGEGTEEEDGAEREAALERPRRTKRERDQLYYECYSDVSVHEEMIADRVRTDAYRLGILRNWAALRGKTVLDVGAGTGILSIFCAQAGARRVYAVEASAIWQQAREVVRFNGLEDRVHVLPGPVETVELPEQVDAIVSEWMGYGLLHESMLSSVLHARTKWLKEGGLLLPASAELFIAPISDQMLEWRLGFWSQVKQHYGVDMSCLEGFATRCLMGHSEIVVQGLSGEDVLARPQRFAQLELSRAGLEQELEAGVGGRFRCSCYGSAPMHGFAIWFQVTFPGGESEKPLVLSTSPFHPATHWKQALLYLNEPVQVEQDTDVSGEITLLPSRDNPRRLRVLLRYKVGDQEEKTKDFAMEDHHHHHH
Experiment: PRMT6 Biochemical Assay (3H-SAM Flashplate, peptide substrate)
Conditions: Biochemical IC50 PRMT6
Endpoint name: IC50

Here are 3 compounds together with their reported answers.
CNCCN(C)Cc1c[nH]nc1-c1ccc(OCCOC)cc1 [Compound 289] = < 100 nM
CNCCN(C)Cc1c[nH]nc1-c1ccc(OC2CCC(O)CC2)cc1 (stereo not shown) [Compound 299] = < 100 nM
CNCCN(C)Cc1c[nH]nc1-c1ccc(C(C)(C)COC)cc1 [Compound 313] = 101 to 1000 nM

For CNCCN(C)Cc1c[nH]nc1-c1ccc(OC2CC(OC)C2)cc1 (stereo not shown) [Compound 315] , write its IC50.
< 100 nM

Please report the measured IC50 for CNCCN(C)Cc1c[nH]nc1-c1ccc(Oc2ccccc2)c(F)c1 [Compound 297]
< 100 nM

Read off the recorded IC50 for CCC(CO)Oc1ccc(-c2n[nH]cc2CN(C)CCNC)cc1 (stereo not shown) [Compound 287]
< 100 nM

Output IC50 of CNCCN(C)Cc1c[nH]nc1-c1ccc(NCC(C)C)cc1 [Compound 296]
< 100 nM

Entry CNCCN(C)Cc1c[nH]nc1-c1ccc(Oc2ccncn2)cc1 [Compound 312] needs its IC50 filled in; supply it.
< 100 nM

Please report the measured IC50 for CNCCN(C)Cc1c[nH]nc1-c1ccc(OC2CCC2)c(F)c1 [Compound 305]
< 100 nM

Give me measured IC50, please, for this compound: CNCCN(C)Cc1c[nH]nc1-c1ccc(OC2CCC2)cc1 [Compound 304]
< 100 nM

Every entry's value here was drawn from patent US9776972B2.
